# experimental.target: 4'-phosphopantetheinyl transferase ffp (Bacillus subtilis)
# test: qHTS Assay for Inhibitors of Bacillus subtilis Sfp phosphopantetheinyl transferase (PPTase);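 note: the enzyme is Sfp with the accession as filed and its product quenches rhodamine fluorescence; 0% = enzyme reaction without inhibitor and -100% = no enzyme wells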
# cond: Biochemical Sfp PPTase activity
The campaign covered roughly 310,000 compounds. About 11,000 (3.5%) were called active. About 4% were inconclusive and are not listed. This is one part of a sample in which actives are shown more often than they occur.
measurement.kind: largest response in the series, negative = inhibition (%)
The figure you give is taken to be in %; do not add the unit.

Use the examples below as a reference point.
Lab request: please report largest response in the series, negative = inhibition under test system 4'-phosphopantetheinyl transferase ffp (Bacillus subtilis) for CC(CC(=O)N1CCN(c2ccccc2)CC1)c1ccccc1 (stereo unspecified)
3.18

Next up: CCCc1c(C(=O)N/N=C(\C)CCc2ccc(OC)cc2)nnn1-c1nonc1N
10.3

Note, next up: C/C(=N\Nc1ncc(Cl)cc1Cl)c1ccc(S(=O)(=O)NCc2ccco2)cc1
-16.4

Try this molecule next: COc1ccc(N2CCN(S(=O)(=O)c3cc(Br)cnc3N)CC2)cc1
7.84

What about this molecule? CCN(CC)c1ccc(C(=O)N/N=C(\C)c2cccc(OC)c2)cc1
-1.28

Moving on to the next molecule.
What largest response in the series, negative = inhibition appears in the records for this molecule with 4'-phosphopantetheinyl transferase ffp (Bacillus subtilis)? Cc1ccc(OC(=O)c2cncc(Br)c2)c(C)c1
-4.31
